target: Short transient receptor potential channel 6 (Mus musculus); test: mouse TRPC6 channel inhibitors, primary screen, cell-based, HEK293, membrane potential dye (AID 2553); details: ACh-evoked depolarization, at 10 µM
Hit rate of the full screen: of about 310,000 compounds, about 3,300 (1.1%) were called active.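 How the source made its calls: active means B-score under library mean minus 3 SD, initial fluorescence not abnormally high, positive integrated signal ratio; inactive means the rest.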 Many of the other results were omitted from the sample, so actives are more common in it than they were.
Valid outcomes are listed here; reply with one: Yes (active), No (inactive)

Examples from the recorded data:
| compound | category_label |
| --- | --- |
| COc1ccccc1C(CNC(=O)c1cccc(NS(=O)(=O)c2ccc(Br)cc2)c1)N(C)C (stereo unspecified) | Yes |
| Cc1cc(Nc2ccc(N3CCOCC3)cc2)c2cccc(C)c2n1 | Yes |
| CCCn1nc(NC(=O)C(C)C)c2cc3cc(OC)ccc3nc21 | No |
| Clc1ccc(C2=CSC3=Nc4cccc5cccc(c45)N23)cc1 | No |
| CCCc1cc(=O)oc2c(C)c(O)c(CN3CCCCC3)cc12 | Yes |
| CCCc1cc(=O)oc2c(C)c(OCC(=O)N3CCC(C(=O)O)CC3)ccc12 | No |
| CC(C)CCNC(=O)C(C)N(C(=O)Cn1nnc(-c2ccc(F)cc2)n1)C1CCCC1 (stereo unspecified) | No |
| COc1ccc(/C=C/C(=O)OCC(=O)NCc2cccs2)cc1OC | No |
| COc1ccc(S(=O)(=O)NCCOc2ccccc2)cc1F | No |
| CC(C)c1ccc(NC2CCCN(C(=O)c3ccncc3)C2)cc1 (stereo unspecified) | No |

Q: Hi, sorry to bother you, what did the test record for `COc1ccc(NC(=O)C2CCN(S(=O)(=O)c3ccc4[nH]c(=O)oc4c3)CC2)c(OC)c1` ?
Ans: No

---

target: Short transient receptor potential channel 6 (Mus musculus) (UniProt Q61143); assay: mouse TRPC6 channel inhibitors, primary screen, cell-based, HEK293, membrane potential dye (AID 2553); conditions: ACh-evoked depolarization, at 10 µM
Sequence (Q61143 whole entry, looked up): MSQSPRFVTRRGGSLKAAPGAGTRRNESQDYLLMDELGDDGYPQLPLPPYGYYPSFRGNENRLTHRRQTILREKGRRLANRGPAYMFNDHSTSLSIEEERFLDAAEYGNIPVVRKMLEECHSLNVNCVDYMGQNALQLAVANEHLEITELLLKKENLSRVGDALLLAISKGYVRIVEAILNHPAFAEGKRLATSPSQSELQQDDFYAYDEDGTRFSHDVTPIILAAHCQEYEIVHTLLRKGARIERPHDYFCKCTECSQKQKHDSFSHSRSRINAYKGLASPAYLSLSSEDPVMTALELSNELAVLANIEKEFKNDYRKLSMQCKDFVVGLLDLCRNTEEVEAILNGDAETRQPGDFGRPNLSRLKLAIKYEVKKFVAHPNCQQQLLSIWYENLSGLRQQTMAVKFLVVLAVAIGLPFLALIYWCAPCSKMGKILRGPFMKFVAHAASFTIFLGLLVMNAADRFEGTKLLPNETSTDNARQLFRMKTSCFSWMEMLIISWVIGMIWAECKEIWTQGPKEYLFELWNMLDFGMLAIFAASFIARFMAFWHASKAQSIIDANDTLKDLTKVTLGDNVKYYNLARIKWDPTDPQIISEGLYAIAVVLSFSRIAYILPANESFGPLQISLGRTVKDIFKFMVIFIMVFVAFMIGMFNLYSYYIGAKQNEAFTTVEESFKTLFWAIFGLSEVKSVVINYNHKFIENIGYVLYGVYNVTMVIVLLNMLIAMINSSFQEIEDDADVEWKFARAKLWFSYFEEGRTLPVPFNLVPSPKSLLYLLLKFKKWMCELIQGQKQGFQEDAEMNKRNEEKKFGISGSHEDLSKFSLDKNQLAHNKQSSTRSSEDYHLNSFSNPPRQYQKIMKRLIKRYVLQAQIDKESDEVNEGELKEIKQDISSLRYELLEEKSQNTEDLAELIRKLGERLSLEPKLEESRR
The campaign covered roughly 310,000 compounds. About 3,300 (1.1%) were called active.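 Rule for the calls: active = B-score under library mean minus 3 SD, initial fluorescence not abnormally high, positive integrated signal ratio; inactive = the rest.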 What follows is part of a selection rich in actives, with near analogues and random picks from the rest.
Valid outcomes are listed here; reply with one: active, inactive

| compound | category_label |
| --- | --- |
| c1ccc(C2CNCc3c2ccc2ccccc32)cc1 (stereo unspecified) | active |

Q: Hi, sorry to bother you, what did the test record for O=C(NCc1ccccc1)C1C(=O)N(Cc2ccccc2)C(=O)C1C1(O)CCCC1 (stereo unspecified) ?
Ans: inactive

---

molecular target: Short transient receptor potential channel 6 (Mus musculus) (UniProt Q61143); experiment: mouse TRPC6 channel inhibitors, primary screen, cell-based, HEK293, membrane potential dye (AID 2553); details: ACh-evoked depolarization, at 10 µM
In all, about 310,000 compounds went through this assay and about 3,300 (1.1%) were called active.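 The calls were made as follows: active = B-score under library mean minus 3 SD, initial fluorescence not abnormally high, positive integrated signal ratio; inactive = the rest.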 Only a selection was taken, and actives are over-represented in it overall.
Valid outcomes are listed here; reply with one: YES = active, NO = inactive

Examples from the recorded data:
| compound | category_label |
| --- | --- |
| O=C(Nc1cccc(Cl)c1)Nc1ccccc1NS(=O)(=O)c1cccs1 | YES |
| CCN(C(=O)Cc1c(C(=O)O)n(CC)c2ccccc12)c1ccccc1C | NO |
| COCCNc1ccc(-c2n[nH]c(=O)c3ccccc23)cc1[N+](=O)[O-] | NO |
| CCCCNC(=O)C1CCC(CNS(=O)(=O)c2ccc(NC(C)=O)cc2)CC1 (stereo not given) | NO |
| Cc1ccc2c(c1)C1CN(C)CCC1N2C(=S)Nc1ccc(OC(F)F)cc1 (stereo not given) | NO |

Q: Hi, sorry to bother you, what did the test record for `CCc1ccccc1NC(=O)CN(c1ccc(OC)cc1OC)S(=O)(=O)c1ccccc1[N+](=O)[O-]` ?
Ans: NO

Q: Hi, sorry to bother you, what did the test record for CC12C(=O)N(c3ccccc3)C(=O)C1C(c1ccccc1)N1CCCN12 (stereo not given) ?
Ans: NO

Q: Hi, sorry to bother you, what did the test record for `CCOC(=O)c1sc2nc(C)[nH]c(=O)c2c1C` ?
Ans: NO

Q: Hi, sorry to bother you, what did the test record for `O=S(=O)(NCc1ccc(Cl)cc1Cl)c1cccs1` ?
Ans: NO

Q: Hi, sorry to bother you, what did the test record for `O=C(c1ccc(CS(=O)(=O)c2ccccc2)o1)N1CCN(c2ccccc2)CC1` ?
Ans: NO

---

target: Short transient receptor potential channel 6 (Mus musculus) (UniProt Q61143); test: mouse TRPC6 channel inhibitors, primary screen, cell-based, HEK293, membrane potential dye (AID 2553); settings: ACh-evoked depolarization, at 10 µM
The whole screen tested about 310,000 compounds, of which about 3,300 (1.1%) were called active.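 Rule for the calls: active = B-score under library mean minus 3 SD, initial fluorescence not abnormally high, positive integrated signal ratio; inactive = the rest.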 The sample as a whole holds a higher share of actives than the screen did.
Valid outcomes are listed here; reply with one: 1.0 (active), 0.0 (inactive)

Q: Hi, sorry to bother you, what did the test record for CCC(=O)NC(Nc1nc2ccc(C)cc2s1)(C(=O)OC)C(F)(F)F (centres undefined) ?
Ans: 0.0

---

target: Short transient receptor potential channel 6 (Mus musculus) (UniProt Q61143); test: mouse TRPC6 channel inhibitors, primary screen, cell-based, HEK293, membrane potential dye (AID 2553); settings: ACh-evoked depolarization, at 10 µM
In all, about 310,000 compounds went through this assay and about 3,300 (1.1%) were called active.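 How the source made its calls: active means B-score under library mean minus 3 SD, initial fluorescence not abnormally high, positive integrated signal ratio; inactive means the rest.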 The list comes from a sample in which actives are over-represented; it also holds close analogues and randomly drawn compounds.
Valid outcomes are listed here; reply with one: yes (1) = active, no (0) = inactive

| compound | category_label |
| --- | --- |
| O=C(CN1CCOCC1)Nc1ccc(NC(=O)CN2CCOCC2)c(Cl)c1 | no (0) |

Q: Hi, sorry to bother you, what did the test record for `O=C(Cn1cc(-c2nnnn2-c2ccc(Cl)cc2)c(=O)c2ccccc21)c1ccccc1` ?
Ans: no (0)

Q: Hi, sorry to bother you, what did the test record for CC(=O)c1ccc(S(=O)(=O)Nc2ccc(C(=O)NCC(c3ccccc3)N(C)C)cc2)cc1 (stereo not given) ?
Ans: no (0)

Q: Hi, sorry to bother you, what did the test record for O=C(Nc1ccc(Br)cc1F)C1CC(=O)N(C2CCCCC2)C1 (stereo not given) ?
Ans: no (0)

Q: Hi, sorry to bother you, what did the test record for `COc1ccc(CNC(=O)CN2CCC(n3nnc4cc(F)ccc43)CC2)cc1` ?
Ans: no (0)

Q: Hi, sorry to bother you, what did the test record for CC(=O)Nc1ccc(NC(=O)CN2CCCC(C)C2)c(Cl)c1 (stereo not given) ?
Ans: yes (1)

Q: Hi, sorry to bother you, what did the test record for `O=C(C[n+]1ccc2c(c1)nnn2-c1ccccc1)c1ccc(Cl)cc1` ?
Ans: yes (1)

Q: Hi, sorry to bother you, what did the test record for COc1ccc2c(c1)C=CC1(O2)N(CCO)c2ccccc2C1(C)C (stereo not given) ?
Ans: no (0)

Q: Hi, sorry to bother you, what did the test record for CCC1=NN(C(=O)Cc2ccc([N+](=O)[O-])cc2)C(O)(c2ccc(Br)cc2)C1 (stereo not given) ?
Ans: no (0)

Q: Hi, sorry to bother you, what did the test record for `Cc1ccc(SCC(=O)NNC(=O)c2ccc(S(C)(=O)=O)cc2)cc1` ?
Ans: no (0)

---

target: Short transient receptor potential channel 6 (Mus musculus); assay: mouse TRPC6 channel inhibitors, primary screen, cell-based, HEK293, membrane potential dye (AID 2553); conditions: ACh-evoked depolarization, at 10 µM
Out of some 310,000 compounds screened, about 3,300 (1.1%) were called active.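 The calls were made as follows: active = B-score under library mean minus 3 SD, initial fluorescence not abnormally high, positive integrated signal ratio; inactive = the rest.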 What follows is part of a selection rich in actives, with near analogues and random picks from the rest.
Valid outcomes are listed here; reply with one: YES (active), NO (inactive)

Q: Hi, sorry to bother you, what did the test record for `CCOc1ccccc1NC(=S)N1CCN(c2cccc(C)c2C)CC1` ?
Ans: NO

Q: Hi, sorry to bother you, what did the test record for O=C(CCN1CCCO1)N1CCCC(N2CCN(c3cccc(C(F)(F)F)c3)CC2)C1 (stereo not drawn) ?
Ans: NO

Q: Hi, sorry to bother you, what did the test record for `COc1ccc(OC)c(C(=O)c2ccc(C(=O)N3CCN(Cc4csc(C)n4)CC3)cc2)c1` ?
Ans: NO

Q: Hi, sorry to bother you, what did the test record for CC(NC(=S)Nc1ccc(OC(F)F)cc1)c1ccc(F)cc1 (stereo not drawn) ?
Ans: YES

Q: Hi, sorry to bother you, what did the test record for `O=C(NCCN1CCOCC1)c1ccc2c(c1)N(Cc1ccc(Cl)cc1)CCS2` ?
Ans: NO

Q: Hi, sorry to bother you, what did the test record for `CC(C)CNC(=S)Nc1ccc(F)cc1` ?
Ans: NO

Q: Hi, sorry to bother you, what did the test record for `CCOC(=O)C1=NN(c2ccc(Cl)cc2)/C(=C/C2=NCCc3cc(OC)c(OC)cc32)S1` ?
Ans: YES

Q: Hi, sorry to bother you, what did the test record for `Oc1c(Cl)cc(Cl)c(Cl)c1Cc1c(O)c(Cl)cc(Cl)c1Cl` ?
Ans: YES

Q: Hi, sorry to bother you, what did the test record for `Cc1nc2ccc(C(=O)N3CCN(c4ccccc4)CC3)cc2s1` ?
Ans: NO

Q: Hi, sorry to bother you, what did the test record for CCOC(=O)C1=C(CN2CCc3ccccc32)NC(=O)NC1c1ccc(Cl)cc1 (stereo not drawn) ?
Ans: NO

Q: Hi, sorry to bother you, what did the test record for Cc1ccc(S(=O)(=O)N(c2cccc(C)c2)C2CCS(=O)(=O)C2)cc1 (stereo not drawn) ?
Ans: NO

Q: Hi, sorry to bother you, what did the test record for `O=C(O)c1ccccc1C(=O)Nc1ccccc1[N+](=O)[O-]` ?
Ans: NO

Q: Hi, sorry to bother you, what did the test record for `Cc1ccc(NC(=S)Nc2ccc(F)cc2)cc1` ?
Ans: NO

Q: Hi, sorry to bother you, what did the test record for `CCN(CC)CCNc1nc(-c2ccc(OC(F)F)cc2)c(C)s1` ?
Ans: YES

Q: Hi, sorry to bother you, what did the test record for `Cc1ccc2nc(Nc3ccccc3)cc(C)c2c1` ?
Ans: NO
